# Test system: ERK phosphorylation in Calu-6 cells
# test details: Calu-6 (Kras Q61K) ERK phosphorylation inhibition experiment (HTRF)
# Type: cell-based, human
# assay setup: 1 hour incubation with compound
pIC50: −log10 of the molar value.

[
  {
    "entry smiles": "COc1cc(F)cc([C@@H](CO)NC(=O)[C@@H](C)N2Cc3ccc(-c4nc(NC5CCOCC5)ncc4Cl)cc3S2(=O)=O)c1",
    "pIC50": 8.20
  }
]

###

Measured Cmax accompanies every entry in the list below.
# test details: Pharmacokinetics of single intravenous and oral administration in mice
# Type: in vivo
# assay setup: mouse, plasma, po, 50 mg/kg/day, single oral administration, 50 mg/kg/day, read-out: Maximum plasma drug concentration Cmax

[
  {
    "entry smiles": "COc1cc(F)cc([C@@H](CO)NC(=O)CN2Cc3ccc(-c4nc(NC5CCOCC5)ncc4Cl)cc3S2(=O)=O)c1",
    "quantity unit": "µM",
    "Cmax": 34.6
  },
  {
    "entry smiles": "C[C@H](C(=O)N[C@H](CO)c1cc(F)cc(Cl)c1)N1Cc2ccc(-c3nc(NC4CCOCC4)ncc3Cl)cc2S1(=O)=O",
    "quantity unit": "µM",
    "Cmax": 90.5
  },
  {
    "entry smiles": "COc1cc(F)cc([C@@H](CO)NC(=O)[C@@H](C)N2Cc3ccc(-c4nc(N[C@H]5CCOC[C@H]5F)ncc4Cl)cc3S2(=O)=O)c1",
    "quantity unit": "µM",
    "Cmax": 157
  },
  {
    "entry smiles": "COc1cc(F)cc([C@@H](CO)NC(=O)[C@@H](C)N2Cc3ccc(-c4nc(NC5CCOCC5)ncc4Br)cc3S2(=O)=O)c1",
    "quantity unit": "µM",
    "Cmax": 156
  }
]
